Details: in isopropanol, 298.15 K
measuredMetric: solubility (mole fraction)

- compound: "COc1ccccc1N1CCN(CC(O)COc2cccc3ccccc23)CC1 (stereo unspecified)"
  measuredMetric: "solubility (mole fraction)"
  assayValue: 0.000959

====

Details: in isopropanol, 288.15 K

- compound: "COc1ccccc1N1CCN(CC(O)COc2cccc3ccccc23)CC1 (stereo unspecified)"
  solubility (mole fraction): 0.000714

====

Settings: in DMSO, 313.15 K
measuredMetric: solubility (mole fraction)

- molecule: "COc1ccccc1N1CCN(CC(O)COc2cccc3ccccc23)CC1 (stereo unspecified)"
  assayValue: 0.0468

====

Conditions: in DMSO, 318.15 K

- compound: "COc1ccccc1N1CCN(CC(O)COc2cccc3ccccc23)CC1 (stereo unspecified)"
  solubility (mole fraction): 0.0527

====

Conditions: in isopropanol, 318.15 K
measuredMetric: solubility (mole fraction)

- compound: "COc1ccccc1N1CCN(CC(O)COc2cccc3ccccc23)CC1 (stereo unspecified)"
  assayValue: 0.00165

====

Conditions: in ethanol, 328.15 K

- compound: "COc1ccccc1N1CCN(CC(O)COc2cccc3ccccc23)CC1 (stereo unspecified)"
  solubility (mole fraction): 0.00397

====

Conditions: in ethanol, 293.15 K

- molecule: "COc1ccccc1N1CCN(CC(O)COc2cccc3ccccc23)CC1 (stereo unspecified)"
  solubility (mole fraction): 0.00163

====

Conditions: in ethanol, 318.15 K

- compound: "COc1ccccc1N1CCN(CC(O)COc2cccc3ccccc23)CC1 (stereo unspecified)"
  solubility (mole fraction): 0.00314

====

Settings: in ethanol, 323.15 K

- molecule: "COc1ccccc1N1CCN(CC(O)COc2cccc3ccccc23)CC1 (stereo unspecified)"
  solubility (mole fraction): 0.00355

====

Settings: in water, 308.15 K

- molecule: "COc1ccccc1N1CCN(CC(O)COc2cccc3ccccc23)CC1 (stereo unspecified)"
  solubility (mole fraction): "5.65e-06"

====

Settings: in water, 298.15 K

- compound: "COc1ccccc1N1CCN(CC(O)COc2cccc3ccccc23)CC1 (stereo unspecified)"
  solubility (mole fraction): "3.46e-06"

====

Conditions: in DMSO, 293.15 K

- molecule: "COc1ccccc1N1CCN(CC(O)COc2cccc3ccccc23)CC1 (stereo unspecified)"
  solubility (mole fraction): 0.0283

====

Conditions: in isopropanol, 308.15 K

- compound: "COc1ccccc1N1CCN(CC(O)COc2cccc3ccccc23)CC1 (stereo unspecified)"
  solubility (mole fraction): 0.00127

====

Settings: in isopropanol, 328.15 K

- compound: "COc1ccccc1N1CCN(CC(O)COc2cccc3ccccc23)CC1 (stereo unspecified)"
  solubility (mole fraction): 0.00213

====

Conditions: in isopropanol, 293.15 K
measuredMetric: solubility (mole fraction)

- compound: "COc1ccccc1N1CCN(CC(O)COc2cccc3ccccc23)CC1 (stereo unspecified)"
  assayValue: 0.000827

====

Details: in DMSO, 308.15 K
measuredMetric: solubility (mole fraction)

- compound: "COc1ccccc1N1CCN(CC(O)COc2cccc3ccccc23)CC1 (stereo unspecified)"
  measuredMetric: "solubility (mole fraction)"
  assayValue: 0.0416

====

Conditions: in DMSO, 303.15 K
measuredMetric: solubility (mole fraction)

- molecule: "COc1ccccc1N1CCN(CC(O)COc2cccc3ccccc23)CC1 (stereo unspecified)"
  assayValue: 0.0367

====

Details: in water, 323.15 K
measuredMetric: solubility (mole fraction)

- compound: "COc1ccccc1N1CCN(CC(O)COc2cccc3ccccc23)CC1 (stereo unspecified)"
  measuredMetric: "solubility (mole fraction)"
  assayValue: "1.09e-05"
